- TESTED_SYSTEM: Indolethylamine N-methyltransferase (Homo sapiens, UniProt O95050)
- Sequence (O95050 whole entry): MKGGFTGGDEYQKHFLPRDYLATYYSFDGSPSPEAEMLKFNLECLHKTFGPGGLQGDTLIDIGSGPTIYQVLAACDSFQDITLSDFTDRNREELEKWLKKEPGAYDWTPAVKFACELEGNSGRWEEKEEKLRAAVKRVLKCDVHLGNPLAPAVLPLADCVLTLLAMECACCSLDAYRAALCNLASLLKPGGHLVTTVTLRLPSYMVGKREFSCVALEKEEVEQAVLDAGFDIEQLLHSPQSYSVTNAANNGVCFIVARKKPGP
- ASSAY_OVERVIEW: Inhibition of human lung INMT using N-methyltryptamine as substrate after 90 mins by liquid scintillation counting in presence of S-methyl-[14C]adenosylmethionine
PROPERTY: IC50

Lookup result for `C1CCN2CCCC2=NC1` ; measured IC50: 852 µM

Lookup result for `C1CCC2=NCCCN2CC1` ; measured IC50: 25.7 µM

Lookup result for `Cn1cc(C(F)(F)F)sc1=N` ; measured IC50: > 86.6 µM

* * *

- TESTED_SYSTEM: Indolethylamine N-methyltransferase (Oryctolagus cuniculus, UniProt O97972)
- Sequence (O97972 whole entry): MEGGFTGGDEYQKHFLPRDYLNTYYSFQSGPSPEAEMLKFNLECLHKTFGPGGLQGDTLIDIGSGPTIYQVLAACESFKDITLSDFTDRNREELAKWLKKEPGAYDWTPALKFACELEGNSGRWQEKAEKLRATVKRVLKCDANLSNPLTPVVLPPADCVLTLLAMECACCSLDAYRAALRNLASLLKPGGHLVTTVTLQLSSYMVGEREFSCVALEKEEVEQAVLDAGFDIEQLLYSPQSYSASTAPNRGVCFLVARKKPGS
- ASSAY_OVERVIEW: Inhibition of New Zealand white rabbit lung INMT using N-methyltryptamine as substrate after 60 to 90 mins by liquid scintillation counting in presence of S-methyl-[14C]adenosylmethionine
PROPERTY: IC50

Lookup result for `N=C1CCCN1C1CC1` ; measured IC50: 67 µM

Lookup result for `N=C1CCCN1CCc1ccccc1` ; measured IC50: 3720 µM

Lookup result for `C1CCC2=NCCCN2CC1` ; measured IC50: 8 µM

Lookup result for `CN1CCC=CC1=N` ; measured IC50: 0.9 µM

Lookup result for `C1CN=C2CCCN2C1` ; measured IC50: 1.67 µM

Lookup result for `Cn1cccc/c1=N\C1CC1` ; measured IC50: > 10.1 µM

Lookup result for `CCOC(CN1CCCC1=N)OCC` ; measured IC50: > 106 µM

Lookup result for `C1CCN2CCCC2=NC1` ; measured IC50: 74.8 µM

* * *

- TESTED_SYSTEM: Indolethylamine N-methyltransferase (Oryctolagus cuniculus, UniProt O97972)
- ASSAY_OVERVIEW: Inhibition of New Zealand white rabbit lung INMT using N-methyltryptamine as substrate after 60 to 90 mins by liquid scintillation counting in presence of S-methyl-[14C]adenosylmethionine
Would you mind telling me the reported IC50 of each entry?
Field format: number, assumed µM, no unit text.

Tested system Indolethylamine N-methyltransferase (Oryctolagus cuniculus, UniProt O97972); IC50 recorded for `C/N=C1\SCCN1C` was 8.1

Tested system Indolethylamine N-methyltransferase (Oryctolagus cuniculus, UniProt O97972); IC50 recorded for `Cn1ccc(=N)cc1` was 6.2

Tested system Indolethylamine N-methyltransferase (Oryctolagus cuniculus, UniProt O97972); IC50 recorded for `CN1CCOC1=N` was 40

Tested system Indolethylamine N-methyltransferase (Oryctolagus cuniculus, UniProt O97972); IC50 recorded for `Cn1ccsc1=N` was 2

Tested system Indolethylamine N-methyltransferase (Oryctolagus cuniculus, UniProt O97972); IC50 recorded for `Cn1cc(F)ccc1=N` was 69.8

Tested system Indolethylamine N-methyltransferase (Oryctolagus cuniculus, UniProt O97972); IC50 recorded for CC1CCC2=NCCN21 (centres undefined) was 9.3

Tested system Indolethylamine N-methyltransferase (Oryctolagus cuniculus, UniProt O97972); IC50 recorded for `CNN1CCSC1=N` was 1.5

Tested system Indolethylamine N-methyltransferase (Oryctolagus cuniculus, UniProt O97972); IC50 recorded for `CN1CCSCC1=N` was 6.3

Tested system Indolethylamine N-methyltransferase (Oryctolagus cuniculus, UniProt O97972); IC50 recorded for `Cn1c(N)cccc1=N` was 6.2

Tested system Indolethylamine N-methyltransferase (Oryctolagus cuniculus, UniProt O97972); IC50 recorded for CC1CN2CCN=C2CS1 (centres undefined) was 30.3

Tested system Indolethylamine N-methyltransferase (Oryctolagus cuniculus, UniProt O97972); IC50 recorded for CC1CCC2=NCCCN21 (centres undefined) was 13.2

Tested system Indolethylamine N-methyltransferase (Oryctolagus cuniculus, UniProt O97972); IC50 recorded for `C/N=C1\CCCN1C` was 31.2

Tested system Indolethylamine N-methyltransferase (Oryctolagus cuniculus, UniProt O97972); IC50 recorded for CC1CC2=NCCCN2C1 (centres undefined) was 7

Tested system Indolethylamine N-methyltransferase (Oryctolagus cuniculus, UniProt O97972); IC50 recorded for `CCN1CCCC1=N` was 1.6
